Recorded values, source patent US20190388425A1.

# assay-target: human full-length MKNK1 (Homo sapiens, UniProt Q9BUB5, T385D)
# Construct: GST (N); purchased Carna Biosciences 02-145; host or cells: insect cells (baculovirus expression system)
# Sequence (Q9BUB5 1-424 isoform Q9BUB5-2 T344D): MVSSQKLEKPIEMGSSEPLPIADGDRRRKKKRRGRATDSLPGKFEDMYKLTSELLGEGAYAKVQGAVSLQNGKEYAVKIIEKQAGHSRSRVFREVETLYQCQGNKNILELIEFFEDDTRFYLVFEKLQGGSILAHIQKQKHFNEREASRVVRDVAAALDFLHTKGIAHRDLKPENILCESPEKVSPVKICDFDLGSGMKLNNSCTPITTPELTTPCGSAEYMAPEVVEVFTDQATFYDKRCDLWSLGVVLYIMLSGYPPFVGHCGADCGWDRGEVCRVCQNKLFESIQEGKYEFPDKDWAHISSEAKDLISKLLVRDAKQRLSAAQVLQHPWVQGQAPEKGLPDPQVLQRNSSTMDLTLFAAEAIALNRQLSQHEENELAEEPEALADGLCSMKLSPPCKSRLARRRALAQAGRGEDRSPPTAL
# test-name: MKNK1 kinase high ATP assay (TR-FRET)
# Format: biochemical
# conditions: TR-FRET, 2 mM ATP (high ATP), 15 min preincubation with enzyme, 30 min reaction at 22° C.; read-out: MKNK1 IC50
Label key: 1 (yes) means IC50 under 1 nM; 0 (no) means IC50 of 1 nM or more.

Example entries and their recorded answers appear below.
1. Cc1cc(Nc2ncnc3sc4c(c23)CC[C@H](C(=O)O)C4)c(=O)n2c1C(=O)NC21CSC1 [Example 44] = 0 (no)
2. Cc1cc(Nc2ncnc3sc4c(c23)CC[C@H](C(=O)N2CC[C@H](N(C)C)C2)C4)c(=O)n2c1C(=O)NC21CS(=O)(=O)C1 [Example 70] = 1 (yes)
3. Cc1cc(Nc2ncnc3sc4c(c23)CC[C@H](C(=O)N(C)C)C4)c(=O)n2c1C(=O)NC2(C)C [Example 27] = 0 (no)
4. Cc1cc(Nc2ncnc3sc4c(c23)CC[C@H](C(=O)N2C[C@H]3C[C@@H]2CO3)C4)c(=O)n2c1C(=O)NC21CCCC1 [Example 36] = 0 (no)

Please examine the following record next.
Please state whether IC50 is below 1 nM for Cc1cc(Nc2ncnc3sc4c(c23)CC[C@H](C(=O)N2CCOC[C@H]2C)C4)c(=O)n2c1C(=O)NC21CCCCC1 [Example 18] 1 (yes)
